Listed next: entries and their corresponding PBM binding z-score.
test system: RARa:RXR (NR concentration 270 nM, RXRa partner concentration 90 nM); assay: PBM binding z-score (relative to random genomic background probes); higher = stronger binding; sequences stand for … in GC…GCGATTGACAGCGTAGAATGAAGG

seq.text	PBM binding z-score
TCAGACAGGTGAAGGTAACTCACGTACGCAGTCG	0.651
CGTCAAAGTTCAAGGTAACGAAACAGAAAGCAGC	3.53
GCTTGCAGATCAAGGTTAAGAAAGACTAAGCTAA	0.588
ATCGAAAGGTCGACGAGGTCAGTATACACCGTTT	5.2
ATCTCTAGGGAAAGATAGTTCAGTGAATGCAAAT	0.402
CGTCAAAGTTCACGGTAACGTAACAGAAAGCAGC	4.67

----------
test system: PPARg homodimer (NR concentration 180 nM); test: PBM binding z-score (relative to random genomic background probes); higher = stronger binding; sequences stand for … in GC…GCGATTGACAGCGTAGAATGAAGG
// values below are reported PBM binding z-score
property.name: PBM binding z-score

seq.text	observed.result
AGAACGAGGGCACGCTGGGTTGATAGCAGAGTAG	0.498
CGTCAGAGTTCAACTAAGGTAACGTAAAGCACGC	2.24
ATATGTAGGTTAGCGGGTCATTCAGTTTGCGCAT	2.58
TCGAGTAGGTTACCAATGTGGCATTCAGCTTTCT	-0.26
CCTTACGGGTCAAGGTTAAAGCACGGGTGGTACG	3.27
ATCTCTAGGTAAAGATAATTCAGTGAATGCAAAT	0.141
TCAGATAGGTAAATGCTAGGTGAAAGTCCGATCT	0.547
GCGACTGGGGCAAAGCAGGTTAGCATAAGGTTGG	-0.037
TAGCCTAGGTGAGATCGGGCCAGTATACGCTATA	-0.915
GCTGCTAGGACAGGTTGGTCAGCTAACGGGTACG	-0.869
CCGACTAGGGCAGAAAGGTTACCATACCATCCGG	1.12
GCGACTGGGGCATCAGCAGGTTACCAGAACTTAA	0.612

----------
system: VDR homodimer (NR concentration 270 nM); test: PBM binding z-score (relative to random genomic background probes); higher = stronger binding; sequences stand for … in GC…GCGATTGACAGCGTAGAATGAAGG
property.name: PBM binding z-score

seq.text	tgt	property.name	observed.result
CAAACTAGGTCACCCGAAGGTCAAAGTCCGCATG	VDR homodimer (NR concentration 270 nM)	PBM binding z-score	4.18
AGAATGAGGTTACCAAAGAACAGGGAAACGCTTG	VDR homodimer (NR concentration 270 nM)	PBM binding z-score	0.342
CGTTCAAGGTCAGAGAGGTCAGTGAATGCCGAGT	VDR homodimer (NR concentration 270 nM)	PBM binding z-score	5.8
ATCTCTAGGTAACTAGTTCAGTGAAAGAGAGGAC	VDR homodimer (NR concentration 270 nM)	PBM binding z-score	0.877
CCTGCTGGGCCATCAGGTCATTGATATCAACGTT	VDR homodimer (NR concentration 270 nM)	PBM binding z-score	1.01
CAAACTAGGTCAAGAGGTCAACGTCCGCTTCCCG	VDR homodimer (NR concentration 270 nM)	PBM binding z-score	3.84
